# measured target: Recombinant human FGFR1 (Homo sapiens)
# Sequence (P11362 22-822): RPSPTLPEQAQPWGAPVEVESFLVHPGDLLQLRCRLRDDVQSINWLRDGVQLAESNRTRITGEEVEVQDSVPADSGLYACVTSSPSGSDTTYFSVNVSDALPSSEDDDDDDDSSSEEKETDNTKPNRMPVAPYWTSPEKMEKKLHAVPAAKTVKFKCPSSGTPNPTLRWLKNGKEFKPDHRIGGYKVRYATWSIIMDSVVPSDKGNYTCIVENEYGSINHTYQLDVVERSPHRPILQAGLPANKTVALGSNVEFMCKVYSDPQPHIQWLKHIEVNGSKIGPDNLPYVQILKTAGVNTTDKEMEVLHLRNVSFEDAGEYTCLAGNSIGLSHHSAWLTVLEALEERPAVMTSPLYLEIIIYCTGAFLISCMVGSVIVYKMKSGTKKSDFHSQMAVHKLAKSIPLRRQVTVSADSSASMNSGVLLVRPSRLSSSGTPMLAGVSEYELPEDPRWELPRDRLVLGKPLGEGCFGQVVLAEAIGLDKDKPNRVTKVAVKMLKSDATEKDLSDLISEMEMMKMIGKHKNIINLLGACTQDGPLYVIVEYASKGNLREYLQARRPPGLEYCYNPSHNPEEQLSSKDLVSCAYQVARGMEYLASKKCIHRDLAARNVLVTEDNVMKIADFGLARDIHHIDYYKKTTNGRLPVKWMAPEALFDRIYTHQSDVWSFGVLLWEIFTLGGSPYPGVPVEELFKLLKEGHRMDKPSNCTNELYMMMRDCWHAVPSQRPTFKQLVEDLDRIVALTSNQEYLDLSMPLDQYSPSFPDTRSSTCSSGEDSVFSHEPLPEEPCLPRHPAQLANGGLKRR
# protocol: Transcreener Kinase Assay of FGFR1
# Assay type: biochemical
# cond: read-out: FGFR1 (FP) IC50
pIC50: −log10 of the molar value.
Recorded pIC50, one value per entry.

mol smiles | pIC50
CCCN1CC(c2ccc(Nc3ncc(OCc4cc(C(=O)NC)cc(OC)c4F)cn3)cn2)C1 | 7.51
CNC(=O)c1cc(CCc2cnc(Nc3ccc(N4C[C@@H](C)N(C)[C@@H](C)C4)cc3)nc2)c(Cl)c(OC)c1 | 7.92
CNC(=O)c1cc(COc2cnc(Nc3ccc(C4CCNCC4)cc3)nc2)c(F)c(OC)c1 | 7.80
CCN1CCc2cc(Nc3ncc(OCc4cc(C(=O)NC)cc(OC)c4F)cn3)ccc21 | 7.19
CNC(=O)c1cc(COc2cnc(Nc3ccc4c(c3)NC(=O)C4(C)C)nc2)c(F)c(OC)c1 | 7.00
CNC(=O)c1cc(CCc2cnc(Nc3ccc(N4C[C@@H](C)N(C)[C@@H](C)C4)cc3)nc2)c(F)c(OC)c1 | 7.92
CNC(=O)c1cc(COc2cnc(Nc3ccc(CN4CCOCC4)cc3)nc2)c(F)c(OC)c1 | 7.74
CNC(=O)c1cc(COc2cnc(Nc3ccc(N4CCOCC4)nc3)nc2)c(Cl)c(OC)c1 | 7.47
CNC(=O)c1cc(CCc2cnc(Nc3ccc(O)cc3)nc2)c(Cl)c(OC)c1 | 7.77
CCn1cc(Nc2ncc(/C=C/c3cc(C(=O)NC)cc(OC)c3Br)cn2)cn1 | 7.55
CCN1[C@H](C)CN(c2ccc(Nc3ncc(CCc4cc(C(=O)NC)cc(OC)c4Cl)cn3)cn2)C[C@@H]1C | 7.64
C#Cc1ccc(Nc2ncc(OCc3cc(C(=O)NC)cc(OC)c3F)cn2)cn1 | 7.40
CNC(=O)c1cc(COc2cnc(Nc3cccc(-n4ccnn4)c3)nc2)c(Cl)c(OC)c1 | 8.22
CNC(=O)c1cc(COc2cnc(Nc3cnc(N4C[C@@H](C)N[C@@H](C)C4)c(F)c3)nc2)c(F)c(OC)c1 | 7.70
CNC(=O)c1cc(COc2cnc(Nc3cccc(-n4nccn4)c3)nc2)c(Cl)c(OC)c1 | 7.77
CNC(=O)c1cc(COc2cnc(Nc3cccc(S(C)(=O)=O)c3)nc2)c(F)c(OC)c1 | 7.64
CCN(CC)CCn1cc(Nc2ncc(OCc3c(F)c(OC)cc(C(=O)NC)c3F)cn2)cn1 | 7.60
CCN(CC)CCOc1ccc(Nc2ncc(OCc3cc(C(=O)NC)cc(OC)c3F)cn2)cc1 | 7.37
CNC(=O)c1cc(CCc2cnc(Nc3ccc(C(C)(C)C#N)nc3)nc2)c(F)c(OC)c1 | 7.51
CNC(=O)c1cc(CCc2cnc(Nc3cnn(C[C@H](C)O)c3)nc2)c(Cl)c(OC)c1 | 7.92
CNC(=O)c1cc(CCc2cnc(Nc3cnn([C@H]4CCOC4)c3)nc2)c(F)c(OC)c1 | 8.05
CNC(=O)c1cc(COc2cnc(Nc3ccc(-c4cnn(C)c4)cc3)nc2)c(F)c(OC)c1 | 7.54
CNC(=O)c1cc(COc2cnc(Nc3cnn(C[C@H](O)CO)c3)nc2)c(F)c(OC)c1 | 7.77
CNC(=O)c1cc(COc2cnc(Nc3ccc([C@@H]4CCCNC4)nc3)nc2)c(Cl)c(OC)c1 | 8.00
CNC(=O)c1cc(COc2cnc(Nc3ccc(N4CCN(C)CC4)c(OC)c3)nc2)c(F)c(OC)c1 | 8.00
CNC(=O)c1cc(COc2cnc(Nc3cnn(C[C@@H](O)CO)c3)nc2)c(F)c(OC)c1 | 7.85
CNC(=O)c1cc(COc2cnc(Nc3ccc([C@H]4CCCNC4)nc3)nc2)c(Cl)c(OC)c1 | 7.80
CNC(=O)c1cc(COc2cnc(Nc3ccc(CCN(C)C)cc3)nc2)c(F)c(OC)c1 | 7.59
CNC(=O)c1cc(COc2cnc(Nc3ccc(-n4ccnn4)cc3)nc2)c(F)c(OC)c1 | 7.41
CNC(=O)c1cc(CCc2cnc(Nc3ccc(N4CCN(C)CC4)c(OC)c3)nc2)c(Cl)c(OC)c1 | 8.22
CNC(=O)c1cc(CCc2cnc(Nc3ccc(N4C[C@@H](C)N(C)[C@@H](C)C4)nc3)nc2)c(Cl)c(OC)c1 | 7.85
